Would you mind telling me the reported growth inhibition of each entry?
# PROTOCOL_TEXT: NCI Yeast Anticancer Drug Screen. Data for the mgt1 strain (AID 153)
# CONDITIONS: S. cerevisiae mgt1 mutant growth inhibition; at 1.2 µM; active compounds read high
This is part of a sample that, as a whole, favours compounds with a hit. Of some 79,000 tested, about 15% had one in any assay.
Give the quantity in %, number only.

Looking up O=C1c2ccccc2C(=O)c2c(O)c(NCCNCCO)cc(O)c21 , I found its growth inhibition recorded as 0

So, CC1(C)CC(=O)C(C(=O)Nc2cccs2)=C(O)C1 ? Its growth inhibition was 10

Lab book: growth inhibition of O=C1c2ccccc2-c2cc3ccccc3c(=O)n21 noted as 12

# compound CNCC(C)CNC ; its growth inhibition = 9

CN(C)CC(CN(C)C)C(=O)/C=C/c1ccc(Cl)cc1Cl has a reported growth inhibition of -2

The compound listed as O=C1c2cccc3cccc(c23)C(=O)N1O has a reported growth inhibition of -8

The compound listed as CCCCCCCN1C(=O)c2ccccc2C1=O shows growth inhibition equal to -7

Measured growth inhibition, COc1cccc(C(NC2=NCCC=N2)c2cc3c(cc2O)OCO3)c1O (configuration not stated) : -1

// growth inhibition value for Nc1ccc(N=Nc2ccc(-c3ccc(O)cc3)cc2)c2ccc(S(=O)(=O)O)cc12 : 1

Note to self: growth inhibition recorded for O=[N+]([O-])c1cn[n+]([O-])c2ccccc12 was 10

For O=C1CC(C(O)(C(F)(F)F)C(F)(F)Cl)CCC1C(O)(C(F)(F)F)C(F)(F)Cl (configuration not stated) the compound record lists growth inhibition as 60

Looking up O=C(Nc1ccc(Cl)cc1)c1cc2cc(N=Nc3ccccc3Cl)ccc2oc1=O , I found its growth inhibition recorded as 3

###

# PROTOCOL_TEXT: NCI Yeast Anticancer Drug Screen. Data for the mlh1 strain (AID 171);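 also: 0% = growth of vehicle-treated control cultures of the same strain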
# CONDITIONS: S. cerevisiae mlh1 strain growth inhibition; at 1.2 µM; active compounds read high
Compounds without any hit were thinned out: in the full panel of roughly 79,000, 15% have a hit.
MEASURED_ATTRIBUTE: growth inhibition (%)
Please reply with the bare figure in % and do not write the unit itself.

Entry under test: CCCCOc1ccc2nc(C)cc(N=[N+]=[N-])c2c1 . Its growth inhibition was 7

// growth inhibition lookup, compound = Cc1cccc2c(Cl)c3cccc(C)c3nc12 , result: -3

Notebook: Fc1cc(F)c(F)c(S)c1F , growth inhibition read as -34

What the record says about O=[N+]([O-])[O][Sn]([O][Sn]([O][N+](=O)[O-])([c]1ccccc1)[c]1ccccc1)([c]1ccccc1)[c]1ccccc1 : growth inhibition is 7

// field: growth inhibition; key: CC(C)(CN1CCCCC1)C(=O)CC(SCCS(=O)(=O)O)c1ccccc1 (stereo unspecified) ; value = 0

Memo: CC(C)Cc1ncc(CCCN=C(N)N)[nH]c1=O , reported growth inhibition: -11

Reported growth inhibition for O=C1CC(C(O)(C(F)(F)F)C(F)(F)Cl)CCC1C(O)(C(F)(F)F)C(F)(F)Cl (stereo unspecified) was 52

Quick note, growth inhibition for c1ccc(-c2cc(C3CO3)c3ccccc3n2)cc1 (stereo unspecified) landed at -1

Summary for this compound, O=C(O)c1ccc2cc(Cl)c3ccccc3c2c1 : growth inhibition is 0

growth inhibition in this record for O=[N+]([O-])c1cccc2nc3ccccc3c(NCCCN3CCCCC3)c12 : 10

Lab note: measured growth inhibition of Cc1c(C(=O)/C=C/c2ccccc2[N+](=O)[O-])[n+](=O)c2ccccc2n1[O-] was 25
